Overview of recorded pKd for various binders
measurement.target: T1, 人NKp30-his蛋白(KACTUS;Cat:NKP-HM430) (human, UniProt O14931 19-135)
T1 construct: Bought protein; Molar concentration was calculated with 35 kDa; also called 重组人NKp30-his; 人NKp30蛋白; not shown: his tag
T1 sequence (looked up): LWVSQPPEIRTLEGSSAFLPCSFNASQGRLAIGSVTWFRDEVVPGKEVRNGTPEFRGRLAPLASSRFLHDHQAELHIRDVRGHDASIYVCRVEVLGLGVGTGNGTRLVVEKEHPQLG
experimental.details: BLI (Octet Red96e), antibody captured on sensor, 100 nM human NKp30-his in solution, 1:1 model
pKd: −log10 of the molar value.

binder	pKd
抗体6 (antibody, V domains shown, Mouse hybridoma monoclonal antibody purified on Protein A; also called 鼠源抗NKp30抗体; NKp30 mAb) VH: QVQLQQSGAELVRPGVSVKISCKGSGYTFTDYAMHWVKQSHAKSLEWIGIISTYYGDASYNQKFKGKATMTVDKSSSTAYMELARLTSEDSAIYYCARDYDNRYAAMDYWGQGTSVTVSS VL: DIVMTQAAFSNPVTLGTSASISCRSSKSLLHSNGITYLYWYLQKPGQSPQLLIYQMSNLASGVPDRFSSSGSGTDFTLRISRVEAEDVGVYYCAQNLELPYTFGGGTKLEIK	8.27
抗体2 (antibody, V domains shown, Mouse hybridoma monoclonal antibody purified on Protein A; also called 鼠源抗NKp30抗体; NKp30 mAb) VH: EVQLQQFGAELVKPGASVKISCKASGYTFTDYNMDWVKQSHGKSLEWIAYINPNYEITTYNQKFKGKATLTVDKSSSTAYMELRSLTSEDTAVYYCARGRGGYDPAMDYWGQGTSVTVSS VL: SIVMTQTPKFLLVSAGDRVTITCKASQSVSNDVTWSQQKPGQSPKLLIYYASNRYTGVPDRFTGSGYGTDFTFTISTVQAEDLAVYLCQQDNSTPPTFGAGTKLELK	9.71
抗体4 (antibody, V domains shown, Mouse hybridoma monoclonal antibody purified on Protein A; also called 鼠源抗NKp30抗体; NKp30 mAb) VH: EVQLVESGGGLVKPGGSLKLSCAASGFTFSDYGMSWIRQTPEKRLEWVASISSGGTYTYYPDSVKGRFTISRDSAKNTLYLQMNSLRSEDTAMYYCARRDGYYSVEYWGQGTSVTVSS VL: QIVLTQSPAIMSASPGGEVTMTCSASSSVSFMHWYQQKSGTSPKRWIFDTSKLASGVPTRFSGSGSGTSYSLTISSMEAEDAATYYCQQWTTNPPTFGGGTKLEIK	9.07
抗体3 (antibody, V domains shown, Mouse hybridoma monoclonal antibody purified on Protein A; also called 鼠源抗NKp30抗体; NKp30 mAb) VH: QGQLQQSGAEVMKPGASVKISCKANGHTFGSYWIEWIKQRPGHGLEWIGEILPGSGSKKYNEKFEGKATFTEETSSNTAYMELTSLTSEDSAVYYCSRGGYYGSRFAYWGQGTLVTVSA VL: DVVLTQTPLSLPVNIGDQASISCKSTKSLLNSDGFTYLDWYLQKPGQSPQLLIYLVSNRFSGVPDRFSGSGSGTDFTLKISRVEAEDLGVYYCFQSNYLPFTFGSGTKLEIK	8.69
抗体5 (antibody, V domains shown, Mouse hybridoma monoclonal antibody purified on Protein A; also called 鼠源抗NKp30抗体; NKp30 mAb) VH: VLILKESGGGLVKPGGSLKLSCAASGFAFSSYDMSWVRQTPEKRLEWVATISSGGSYTYYPDSVKGRFTISRDNARNTLYLQMSSLRSEDTALYYCARHFGDHDGYVMDYWGQGTSVIVSS VL: DIVMTQSPSSLAMSLGQKVTMSCKSSQSLLNSSNQKSNLAWYQQKPGQSPKLLVYFASTRESGVPDRFIGSGSGTDFSLTIRSVQAEDLADYFCQQHYSTPFTFGSGTKLEIK	9.09
抗体1 (antibody, V domains shown, Mouse hybridoma monoclonal antibody purified on Protein A; also called 鼠源抗NKp30抗体; NKp30 mAb) VH: QVQLQQPGAELVKPGASVKLSCKASGYTFTSYWMEWVKLRPGQGFDWIGEINPSNGGTNYNEKFKRKAILTVDKSSSAAYMQLSGLTSEDSAVYYCTIGGDYAWFAYWGQGTLVTVSA VL: DIKMTQSPSSMYASLGERVTITCKASQDIKSYLSWYQQKPWKSPKTLIFYATSLADGVPSRFSASGSGQDYSLTISSLESDDTATYYCLQHGESPYTFGGGTKLEIK	9.36
